- MEASURED ON: Polyunsaturated fatty acid 5-lipoxygenase (Rattus norvegicus)
- Sequence (P12527 whole entry): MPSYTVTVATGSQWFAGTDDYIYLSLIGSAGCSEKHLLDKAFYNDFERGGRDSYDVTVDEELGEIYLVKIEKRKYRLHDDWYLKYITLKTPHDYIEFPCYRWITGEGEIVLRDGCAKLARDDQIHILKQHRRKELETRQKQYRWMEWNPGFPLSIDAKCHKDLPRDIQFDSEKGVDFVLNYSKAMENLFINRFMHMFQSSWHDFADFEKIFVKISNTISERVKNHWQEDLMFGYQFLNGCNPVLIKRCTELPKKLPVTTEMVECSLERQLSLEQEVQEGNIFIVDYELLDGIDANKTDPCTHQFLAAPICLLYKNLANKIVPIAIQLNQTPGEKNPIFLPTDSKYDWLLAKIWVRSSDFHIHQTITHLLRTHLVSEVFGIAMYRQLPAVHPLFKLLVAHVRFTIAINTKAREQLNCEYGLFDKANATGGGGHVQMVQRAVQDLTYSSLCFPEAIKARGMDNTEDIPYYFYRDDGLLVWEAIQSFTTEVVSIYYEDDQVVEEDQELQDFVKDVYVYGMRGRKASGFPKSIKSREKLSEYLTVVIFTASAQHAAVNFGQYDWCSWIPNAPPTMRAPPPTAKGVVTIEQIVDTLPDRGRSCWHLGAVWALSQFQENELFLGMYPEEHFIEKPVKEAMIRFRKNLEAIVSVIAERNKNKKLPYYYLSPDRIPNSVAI
- ASSAY NOTES: In vitro inhibition of 5-lipoxygenase in RBL-1 cells
QUANTITY NAME: IC50 (nM)

Consider the reported IC50 for these compounds:
* CC(=O)N(O)C(C)c1ccc(CC(C)C)cc1 (configuration not stated) | 420
* CCCCOc1ccc(C(C)C(=O)N(C)O)cc1 (configuration not stated) | 780
* CC(C(=O)N(C)O)c1ccc2ccccc2c1 (configuration not stated) | 590

a. CC(=O)N(O)C(C)c1ccc2ccccc2c1 (configuration not stated)
b. CC(=O)N(O)C(C)c1ccc(OCc2ccccc2)cc1 (configuration not stated)
Of the two listed items, which has the higher IC50? First: a Second: b Write down the label of the entry you select.
a
(a: 540 nM, b: 370 nM)

1. CCCCOc1ccc(C(C)N(O)C(C)=O)cc1 (configuration not stated)
2. CC(C)Cc1ccc(C(C)C(=O)N(C)O)cc1 (configuration not stated)
Of the two listed items, which has the higher IC50? First: 1 Second: 2 Write down the label of the entry you select.
1

* * *

- Species on record: Rattus norvegicus
- ASSAY NOTES: Effective dosage to inhibit leukotriene biosynthesis in rat peritoneal anaphylaxis model
- Type: functional
QUANTITY NAME: ED50 (mg/kg)
Number in mg/kg, nothing else.

Consider the reported ED50 for these compounds:
• CC(=O)N(O)C(C)c1ccc(CC(C)C)cc1 (stereo not given) = 24
• CC(=O)N(O)C(C)c1ccc(OCc2ccccc2)cc1 (stereo not given) = 8

Quick one: ED50 for CCCCOc1ccc(C(C)N(O)C(C)=O)cc1 (stereo not given) ?
17

Quick one: ED50 for CC(C(=O)N(C)O)c1ccc(OCc2ccccc2)cc1 (stereo not given) ?
40

Quick one: ED50 for CC(=O)N(O)C(C)c1ccc2ccccc2c1 (stereo not given) ?
19
